Each recorded value in this set is attributed to patent US20240409645A1.

tested_target: T1, human IL-2Rβ (human, UniProt P14784 27-240, limits assumed)
T1 construct: Recombinant protein, coated (ELISA) or immobilised on CM5 (SPR); also called hu IL-2R; interleukin 2 receptor β-chain
T1 sequence: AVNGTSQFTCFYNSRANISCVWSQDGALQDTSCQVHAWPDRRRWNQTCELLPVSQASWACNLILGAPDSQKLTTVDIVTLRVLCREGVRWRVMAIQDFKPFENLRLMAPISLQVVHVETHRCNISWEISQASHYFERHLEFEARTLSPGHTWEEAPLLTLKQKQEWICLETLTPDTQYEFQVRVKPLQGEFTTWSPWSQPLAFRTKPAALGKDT
protocol_summary: P.E. binding ELISA on coated protein
Reported P.E. binding ELISA OD values for a set of binders
attribute_measured: P.E. binding ELISA OD (OD450 nm)

binder="FJ1427_P035MP03E08 (VHH, soluble VHH in periplasmic extract; also called clone nr) VHH: QVQLVESGGGLVQAGGSLRLSCAAAGRAIENYPVGWFRRAPGKEREFVAAITWISGSTLYADSVKGRFTISRDNAKNTVYLQMSSLKPEDTALYYCAAALKTITRGQNDYSYWGQGTQVTVSS" attribute_measured="P.E. binding ELISA OD" unit_of_measure="OD450 nm" value_observed=1.11
binder="FJ1427_P035MP03B09 (VHH, soluble VHH in periplasmic extract; also called clone nr) VHH: QVQLVESGGGLVQAGGSLRLSCVVSGDVFVRYTMAWFRQAPGKEREFVTSITDSGRTTEYVDSVKGRFTVSRDNAKNTVYLQMNNLKPEDTAVYYCAANTDYFRIRSLDANTWGQGTQVTVSS" attribute_measured="P.E. binding ELISA OD" unit_of_measure="OD450 nm" value_observed=0.467
binder="FJ1427 P035MP03D07 (VHH, soluble VHH in periplasmic extract; also called clone nr) VHH: EVQLVESGGGLVQAGGSLRLSCAASGDVFVRYTMAWFRQAPGKEREFVASVTDSGRTTDYGDSVKGRFTVSRDNAKNTVYLQMNNLKPEDTAVYYCAANTDYFQIRSLDANTWGQGTQVTVSS" attribute_measured="P.E. binding ELISA OD" unit_of_measure="OD450 nm" value_observed=0.209
binder="FJ1427 P035MP06D01 (VHH, soluble VHH in periplasmic extract; also called clone nr) VHH: QVQLVESGGRLVQAGGSLRLSCAASGDVFVRYTMAWFRQAPGKEREFVASVTDSGRTTEYVDSVKGRFTVSRDNAKNTAYLQMNNLKPEDTAVYYCAANTDYFQIRSLNLNTWGQGTQVTVSS" attribute_measured="P.E. binding ELISA OD" unit_of_measure="OD450 nm" value_observed=1.1
binder="FJ1427 P035MP03B08 (VHH, soluble VHH in periplasmic extract; also called clone nr; 250) VHH: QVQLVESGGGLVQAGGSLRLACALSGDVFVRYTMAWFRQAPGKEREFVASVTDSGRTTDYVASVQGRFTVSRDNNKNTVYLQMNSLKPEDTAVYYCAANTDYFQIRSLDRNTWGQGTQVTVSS" attribute_measured="P.E. binding ELISA OD" unit_of_measure="OD450 nm" value_observed=1.12
binder="FJ1427_P035MP03E11 (VHH, soluble VHH in periplasmic extract; also called clone nr) VHH: EVQLVESGGGLVQAGGSLRLSCVVSGDVFVRYTMAWFRQAPGKEREFVAAVTDSGRTTEYVDSVKGRFTVSRDNAKNTVYLQMNNLEPEDTAVYYCAANTDYFQIRSVDNNAWGQGTQVTVSS" attribute_measured="P.E. binding ELISA OD" unit_of_measure="OD450 nm" value_observed=0.624
binder="FJ1427_P035MP03E10 (VHH, soluble VHH in periplasmic extract; also called clone nr) VHH: EVQLVESGGGLVQPGGSLRLSCAASGFTFRNYAMSWVRQAPGKGLEWVGGITGEGLGTIYQDSVEGRFTISRNNAKNTLYLQMNSLRSEDTAVYYCTKMASGTLFRDKPYEYTSRGQGTQVTVSS" attribute_measured="P.E. binding ELISA OD" unit_of_measure="OD450 nm" value_observed=0.398
binder="FJ1427 P035MP03C04 (VHH, soluble VHH in periplasmic extract; also called clone nr) VHH: EVQLVESGGGLVQAGASLELSCAASGGTFSSYAMGWFRQAPGKEREFVAATTRGGGRTMYAVSTEGRFSCSRDNAKNTVNLLIKNLKPEDTAVYYCAARTSYYDGTYYPASSDFDIWGQGTQVTVSS" attribute_measured="P.E. binding ELISA OD" unit_of_measure="OD450 nm" value_observed=0.395
